Exercise: for every item that follows, state its recorded apparent KD of MS2 coat protein.
# Tested on: MS2 coat protein
# methodSummary: apparent KD of MS2 coat protein; designed switch direction (-1 OFF switch, 1 ON switch): -1; higher = weaker reporter binding
# cond: input ligand: none

Exercise: Fill in the blank: the reported apparent KD of MS2 coat protein of UGAUCUAGCGGAGGAUAUACAUGAGGAUCACCCAUGUAGAUAACAUGACCGUAGUCGUGUAACGUGUAGAAGGCCGCUAGAUCU [JL ENG2 3.68] (Eterna round: R96, puzzle: Exclusion NG 2) is ____.
Solution: 0.023 µM

Exercise: Fill in the blank: the reported apparent KD of MS2 coat protein of UUUAGUCGUGACAUGGGUGACAUGAGGAUCACCCAUGUUACAAGCUUGUUGCUCGUCUUAUAAUUAACCCAUGUCAC [LRO Sensor-off var1-16 mod of Stov1-13-A1 by Brourd] (Eterna round: R97, puzzle: Sensor, turn-off variant 1) is ____.
Solution: 0.0172 µM

Exercise: Fill in the blank: the reported apparent KD of MS2 coat protein of GUAAACGAAGAGGAUAUUUGAUAUCAUAGCUUCAAAGAAGGCUUCACAUGAGGAUCACCCAUGUGAUCUUCAAA [Mat - Exclusion 6 - JL Mod - D22] (Eterna round: R97, puzzle: Exclusion 6) is ____.
Solution: 0.0207 µM

Exercise: Fill in the blank: the reported apparent KD of MS2 coat protein of CAGUACAGAGGAUAUACAUGAGGAUCACCCAUGUGUUUCAGGUACGAGAGUACCGAGUGUAGAAGGCUGUACUG [jl-ex3-4.28 salish99 mod] (Eterna round: R97, puzzle: Exclusion 3) is ____.
Solution: 0.0381 µM

Exercise: Fill in the blank: the reported apparent KD of MS2 coat protein of CCCGGGUUUGUGAGGAUAUCGGGCCCGAAAGGGCCCGAGAAGGCACAUGAGGAUCACCCAUGUAAGGGCCCGGG [-42.9, -40.9 kcal, A 23%, 0-5cbis] (Eterna round: R97, puzzle: Brourd's mod of Exclusion 4) is ____.
Solution: 0.0261 µM

Exercise: Fill in the blank: the reported apparent KD of MS2 coat protein of CGGAUGUUAGGAUAUUAGUAGUAGUCAGAAUAGACUAUUACUGAGAAGGAACAUGAGGAUCACCCAUGUAUCCG [Eli x4 4.20] (Eterna round: R97, puzzle: Exclusion 4) is ____.
Solution: 0.0177 µM

Exercise: Fill in the blank: the reported apparent KD of MS2 coat protein of CCGGAAAGGAAGGAUAUGCUAGACGAUAGUCUAGCAGAAGGUCCUACAUGAGGAUCACCCAUGUGGUCCUCCGG [Mat - Exclusion 6 - Eli Mod - D33] (Eterna round: R97, puzzle: Exclusion 6) is ____.
Solution: 1.21 µM

Exercise: Fill in the blank: the reported apparent KD of MS2 coat protein of UCAAGUUUUUAGAUUCUUAACAUGAGGAUCACCCAUGUGCUCGUCUUGUUGUACUAUCACUCGAAAGUGAUAGUACA (Eterna round: R97, puzzle: Sensor, turn-off variant 1) is ____.
Solution: 0.0464 µM

Exercise: Fill in the blank: the reported apparent KD of MS2 coat protein of ACAUGUCAUCGAGGAUAUUGGACACAUGAGGAUCACCCAUGUACUCGGAGGCUCUACCAUGAGUUCGAGAAGGCGAUGUACAUU [Ex NG2 #77] (Eterna round: R96, puzzle: Exclusion NG 2) is ____.
Solution: 0.23 µM
